From: patent US8759360B2

# study.target: rat CB2 receptor (Rattus norvegicus)
# Construct: expressed in transfected cells
# Sequence (Q9QZN9 1-360): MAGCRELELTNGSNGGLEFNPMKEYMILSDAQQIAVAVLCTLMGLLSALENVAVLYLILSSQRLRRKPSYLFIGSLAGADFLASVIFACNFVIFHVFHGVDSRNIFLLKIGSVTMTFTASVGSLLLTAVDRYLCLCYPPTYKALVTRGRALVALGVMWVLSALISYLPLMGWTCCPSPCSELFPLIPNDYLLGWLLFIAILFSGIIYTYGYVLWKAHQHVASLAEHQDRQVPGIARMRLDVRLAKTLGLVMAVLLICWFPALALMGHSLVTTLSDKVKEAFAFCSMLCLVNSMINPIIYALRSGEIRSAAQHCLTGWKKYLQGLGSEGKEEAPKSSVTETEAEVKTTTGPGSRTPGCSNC
# test.name: Displacement of 3H-CP55940 from rat CB2 receptors
# Type: binding
# experimental.context: 3H-CP55940 displacement, rat CB2; read-out: rat receptor Ki value
pKi: −log10 of the molar value. Counter-ions that a name gives are not always drawn.

{"compound": "CC(=O)N1CCN(c2nc(C)nc3c2nc(-c2ccccc2Cl)n3CC(C)(C)O)CC1 [Example 13, hydrochloride]", "pKi": 6.67}

* * *

# study.target: hCB2 (Homo sapiens)
# Sequence (P34972 whole entry): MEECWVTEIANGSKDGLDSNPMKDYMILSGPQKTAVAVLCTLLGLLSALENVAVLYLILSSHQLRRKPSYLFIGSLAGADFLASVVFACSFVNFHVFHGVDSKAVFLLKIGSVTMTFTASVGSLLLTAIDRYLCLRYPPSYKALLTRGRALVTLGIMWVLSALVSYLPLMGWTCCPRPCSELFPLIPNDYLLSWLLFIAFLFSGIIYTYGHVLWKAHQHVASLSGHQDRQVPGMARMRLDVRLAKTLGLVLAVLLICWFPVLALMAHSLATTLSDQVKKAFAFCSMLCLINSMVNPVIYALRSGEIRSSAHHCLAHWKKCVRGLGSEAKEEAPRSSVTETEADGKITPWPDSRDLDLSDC
# test.name: CB2 in vitro functional assay (SPA based GTP-γ-35S binding, agonist mode)
# Format: biochemical
# experimental.context: agonist mode, hCB2-Sf9 membranes; read-out: relative EC50 value for CB2
# Description: Exemplified compounds are tested in agonist mode using a SPA based GTP-γ-^35S binding assay. All assay components are prepared in assay buffer made up of 20 mM HEPES, 100 mM NaCl, 5 mM MgCl2, (pH 7.4 at room temperature). […] GTP-γ^35-S binding is measured in a 96 well format using a whole membrane capture technique for the CB1 assay and modifications of an antibody capture technique previously described (DeLapp et al. J Pharmacol Exp Ther 289:946-955, 1999) for the CB2 assay. […]
pEC50: −log10 of the molar value.

{"molecule": "Cc1nc(N2CCN(C)CC2)c2nc(-c3ccccc3Cl)n(C(C)CO)c2n1.Cl (single isomer, unassigned; isomer 2)", "pEC50": 7.65}

* * *

# test.name: Dose-ranging toxicity study in beagle dogs
# Assay type: in vivo, dog
# experimental.context: both sexes, beagle; dog, 30 mg/kg single oral dose, plasma; read-out: mean maximum concentration (Cmax)
endpoint.name: Cmax (ng/mL)

{"molecule": "Cc1nc(N2CCN(C)CC2)c2nc(-c3ccccc3Cl)n(C(C)CO)c2n1.Cl (single isomer, unassigned; isomer 2) [Example 19]", "measure.unit": "ng/mL", "observed.measurement": 7540}

* * *

# study.target: hCB1 (Homo sapiens)
# Construct: expressed in transfected cells; host or cells: CHO cells (membranes)
# Sequence (P21554 whole entry): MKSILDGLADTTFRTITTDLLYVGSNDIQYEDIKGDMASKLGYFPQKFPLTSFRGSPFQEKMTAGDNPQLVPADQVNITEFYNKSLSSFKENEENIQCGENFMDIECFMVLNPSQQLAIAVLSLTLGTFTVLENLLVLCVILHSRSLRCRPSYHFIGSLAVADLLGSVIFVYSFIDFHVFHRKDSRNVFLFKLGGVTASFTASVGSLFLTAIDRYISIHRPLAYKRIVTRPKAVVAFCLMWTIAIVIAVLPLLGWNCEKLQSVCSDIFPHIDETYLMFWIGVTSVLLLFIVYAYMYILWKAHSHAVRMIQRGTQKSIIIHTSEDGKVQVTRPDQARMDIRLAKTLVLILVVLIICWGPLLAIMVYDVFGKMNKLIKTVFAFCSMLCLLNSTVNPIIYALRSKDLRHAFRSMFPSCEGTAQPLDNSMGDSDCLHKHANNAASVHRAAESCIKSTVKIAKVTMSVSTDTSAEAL
# test.name: CB1 in vitro functional assay (SPA based GTP-γ-35S binding, agonist mode)
# Assay type: biochemical
# experimental.context: agonist mode, hCB1-CHO membranes; read-out: relative EC50 value for CB1
endpoint.name: EC50

{"compound": "Cc1nc(N2CCN(C)CC2)c2nc(-c3ccccc3Cl)n(C(C)CO)c2n1.Cl (single isomer, unassigned; isomer 2)", "observed.measurement": "> 100 µM"}
